tested on: OVCAR-8 ovarian; test: NCI tumour cell line growth inhibition, 384-well format
The entries below are paired with their reported TGI.
Could you give me the number in µM? Just the number is fine.

See these solved cases before continuing.
Tell me the measured TGI of N#CC[C@H](C1CCCC1)n1cc(-c2ncnc3[nH]ccc23)cn1 , please.
75.8

Tell me the measured TGI of O=C(NO)c1cnc(N2CCN(S(=O)(=O)c3ccc4ccccc4c3)CC2)nc1 , please.
0.14

Would you kindly look at the next entry?
Tell me the measured TGI of Cc1cc2c(C(C)C)c(O)c(O)c(C=O)c2c(O)c1-c1c(C)cc2c(C(C)C)c(O)c(O)c(C=O)c2c1O (tested in a mixture with another compound) , please.
3.24

* * *

The entries below are paired with their reported GI50.
tested on: MCF7 breast; experiment: NCI tumour cell line growth inhibition, 384-well format

See these solved cases before continuing.
Tell me the measured GI50 of Cc1cc2c(C(C)C)c(O)c(O)c(C=O)c2c(O)c1-c1c(C)cc2c(C(C)C)c(O)c(O)c(C=O)c2c1O (tested in a mixture with another compound) , please.
2090 nM

Tell me the measured GI50 of O=C(CC1(O)C(=O)Nc2c(Cl)ccc(Cl)c21)c1ccc(C2CC2)cc1 (centres undefined) , please.
111 nM

Tell me the measured GI50 of CC(C)N(C[C@H]1O[C@@H](n2cnc3c(N)ncnc32)[C@H](O)[C@@H]1O)C1CC(CCc2nc3ccc(C(C)(C)C)cc3[nH]2)C1 (some centres undefined) , please.
20000 nM

Others:
Tell me the measured GI50 of N#Cc1c(Oc2ccc(F)c(NC(=O)Cc3cccc(C(F)(F)F)c3)c2)ccc2nc(NC(=O)C3CC3)sc12 , please.
717 nM

* * *

tested on: KM12 colon; assay: NCI tumour cell line growth inhibition, 384-well format
reported_property: TGI (nM)
Could you give me the number in nM? Just the number is fine.

Tell me the measured TGI of O=C(NO)c1cnc(N2CCN(S(=O)(=O)c3ccc4ccccc4c3)CC2)nc1 , please.
467

Would you kindly look at the next entry?
Tell me the measured TGI of O=C(CC1(O)C(=O)Nc2c(Cl)ccc(Cl)c21)c1ccc(C2CC2)cc1 (stereo not given) , please.
2770

* * *

system: UACC-257 melanoma; assay: NCI tumour cell line growth inhibition, 384-well format; in the data active means GI50 below about 0.43 µM; inactive means the rest
// allowed return values: active, inactive

Worked examples follow.
Look up the recorded call for O=C(CC1(O)C(=O)Nc2c(Cl)ccc(Cl)c21)c1ccc(C2CC2)cc1 (stereo not given) in this test.
active

Look up the recorded call for N#Cc1c(Oc2ccc(F)c(NC(=O)Cc3cccc(C(F)(F)F)c3)c2)ccc2nc(NC(=O)C3CC3)sc12 in this test.
active

Look up the recorded call for CC(C)N(C[C@H]1O[C@@H](n2cnc3c(N)ncnc32)[C@H](O)[C@@H]1O)C1CC(CCc2nc3ccc(C(C)(C)C)cc3[nH]2)C1 (stereo not given in full) in this test.
inactive

Look up the recorded call for CS[C@@]1(C(=O)Nc2ccc3[nH]nc(-c4ccc(OC(C)C)nc4)c3c2)CCN(CC(=O)N2CC=C(c3ccc(-c4ncn(C)n4)cc3)CC2)C1 in this test.
active

Pending compound:
Look up the recorded call for O=C(NO)c1cnc(N2CCN(S(=O)(=O)c3ccc4ccccc4c3)CC2)nc1 in this test.
active

Recorded values, source PubChem BioAssay (NCI).
